Recorded EC50 for the following compounds
System: HBV
Assay: Antiviral (HBV) assay in primary human hepatocytes (PHHs)
Assay type: cell-based
Conditions: Hepatitis B virus, Hepatocyte, 120 h; HBV (GTD) infected PHH, 5 days, HBV DNA in supernatant; average of at least two independent experiments
observable: EC50 (nM)

C[C@H](Cn1cnc2c(N)ncnc21)OCP(=O)(NC(C)(C)C(=O)OCC12CCC(CC1)CC2)NC(C)(C)C(=O)OCC12CCC(CC1)CC2 [Example 48]    4.63
CCCCCCOC(=O)C(C)(C)NP(=O)(CO[C@H](C)Cn1cnc2c(NC(=O)OCc3oc(=O)oc3C)ncnc21)NC(C)(C)C(=O)OCCCCCC [Example 33]    2.62
C[C@H](Cn1cnc2c(N)ncnc21)OCP(=O)(NC(C)(C)C(=O)OCC1CCCCC1)NC(C)(C)C(=O)OCC1CCCCC1 [Example 46]    2.51
